System: Odoribacter splanchnicus
Test: growth AUC relative to DMSO control (median of replicates) (fraction); higher = more growth (less inhibition), active = hit call of the paper
Details: 20 µM; 24 h
Rule: t for growth AUC not less than 1, f for anything less.

Record excerpt, results attached:
CCOC(=O)CCN(Cc1ccccc1)SN(C)C(=O)O/N=C(/C)SC: t
C=CCC1=C(C)C(OC(=O)[C@@H]2[C@@H](C=C(C)C)C2(C)C)CC1=O (stereo not given in full): t
CNC(=O)O/N=C/C(C)(C)S(C)=O (stereo not given): f

Prompt line: Threshold query (growth AUC >= 1) on C#CCC1=C(C)C(OC(=O)C2C(C=C(C)C)C2(C)C)CC1=O (stereo not given)
Response line: t

Prompt line: Given the entry CCS(=O)(=O)CCSP(=O)(OC)OC , answer whether its growth AUC meets or surpasses 1.
Response line: f
